Record set of IC50 for target or system human 20S proteasome, trypsin-like (T-L) activity (Homo sapiens).

Asked: Please give the measured IC50 for this compound: CCCCCCC1C(=O)NC2(C(O)C3C=CCCC3)C(=O)OC12C (racemic) [(±)-2, rac-cinnabaramide A]
Given back: 260 nM

Asked: Give the measured IC50 of C[C@@]12OC(=O)[C@]1([C@@H](O)[C@@H]1C=CCCC1)NC(=O)[C@@H]2CCCCl [compound 54, (−)-homosalino] .
Given back: 118 nM

Please find the next compound below.
Asked: Entry C[C@@]12OC(=O)[C@]1([C@@H](O)[C@@H]1C=CCCC1)NC(=O)[C@@H]2CCCl [1a, (−)-salino A] : reported IC50 = ?
Given back: 39 nM

###

The following are reported IC50 results, target or system human 20S proteasome, caspase-like (C-L) activity (Homo sapiens).
Express your answer in nM, writing the number without its unit.

Asked: Form field - read-out: IC50; system: human 20S proteasome, caspase-like (C-L) activity (Homo sapiens); submitted item: CCCCCCC1C(=O)NC2(C(O)C3C=CCCC3)C(=O)OC12C (racemic) [(±)-2, rac-cinnabaramide A]
Sequence (P28072 35-239): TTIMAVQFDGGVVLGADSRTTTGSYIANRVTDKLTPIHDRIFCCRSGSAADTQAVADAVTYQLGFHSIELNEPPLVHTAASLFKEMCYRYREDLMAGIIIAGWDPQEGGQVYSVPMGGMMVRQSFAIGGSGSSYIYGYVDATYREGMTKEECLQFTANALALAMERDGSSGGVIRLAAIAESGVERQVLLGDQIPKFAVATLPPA
Given back: 125

Continuing:
Asked: Notebook: pull reported IC50 for human 20S proteasome, caspase-like (C-L) activity (Homo sapiens), entry C[C@@]12OC(=O)[C@]1([C@@H](O)[C@@H]1C=CCCC1)NC(=O)[C@@H]2CCCCl [compound 54, (−)-homosalino]
Given back: 144

Asked: Provide the documented IC50 with human 20S proteasome, caspase-like (C-L) activity (Homo sapiens) as the system for C[C@@]12OC(=O)[C@]1([C@@H](O)[C@@H]1C=CCCC1)NC(=O)[C@@H]2CCCl [1a, (−)-salino A]
Given back: 111

###

targetOrSystem: human 26S proteasome, chymotrypsin-like (CT-L) activity (Homo sapiens)
Sequence (P28074 60-263): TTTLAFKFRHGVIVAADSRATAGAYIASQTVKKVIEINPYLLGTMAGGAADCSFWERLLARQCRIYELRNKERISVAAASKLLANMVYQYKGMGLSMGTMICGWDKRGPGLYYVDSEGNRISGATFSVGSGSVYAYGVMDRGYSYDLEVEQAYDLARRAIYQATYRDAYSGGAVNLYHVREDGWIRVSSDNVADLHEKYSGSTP
measurementType: pIC50
When answering, recall that pIC50 equals minus log10 of the concentration in mol/L, and write that number alone.

Asked: Notebook: pull reported pIC50 for human 26S proteasome, chymotrypsin-like (CT-L) activity (Homo sapiens), entry CCCCCCC1C(=O)NC2(C(O)C3C=CCCC3)C(=O)OC12C (racemic) [(±)-2, rac-cinnabaramide A]
Given back: 8.66
